target: recombinant full-length USP7 (Homo sapiens, UniProt Q93009); construct: A 25 μl reaction volume containing recombinant full-length USP7 (62 pM); test: USP7-mediated ubiquitin-rhodamine cleavage assay; type: biochemical; settings: recombinant full-length USP7 62 pM; ubiquitin-rhodamine 100 nM; 30-minute pre-incubation, 1 hour reaction at room temperature; read-out: Potency (USP7 IC50)
Sequence (Q93009 whole entry): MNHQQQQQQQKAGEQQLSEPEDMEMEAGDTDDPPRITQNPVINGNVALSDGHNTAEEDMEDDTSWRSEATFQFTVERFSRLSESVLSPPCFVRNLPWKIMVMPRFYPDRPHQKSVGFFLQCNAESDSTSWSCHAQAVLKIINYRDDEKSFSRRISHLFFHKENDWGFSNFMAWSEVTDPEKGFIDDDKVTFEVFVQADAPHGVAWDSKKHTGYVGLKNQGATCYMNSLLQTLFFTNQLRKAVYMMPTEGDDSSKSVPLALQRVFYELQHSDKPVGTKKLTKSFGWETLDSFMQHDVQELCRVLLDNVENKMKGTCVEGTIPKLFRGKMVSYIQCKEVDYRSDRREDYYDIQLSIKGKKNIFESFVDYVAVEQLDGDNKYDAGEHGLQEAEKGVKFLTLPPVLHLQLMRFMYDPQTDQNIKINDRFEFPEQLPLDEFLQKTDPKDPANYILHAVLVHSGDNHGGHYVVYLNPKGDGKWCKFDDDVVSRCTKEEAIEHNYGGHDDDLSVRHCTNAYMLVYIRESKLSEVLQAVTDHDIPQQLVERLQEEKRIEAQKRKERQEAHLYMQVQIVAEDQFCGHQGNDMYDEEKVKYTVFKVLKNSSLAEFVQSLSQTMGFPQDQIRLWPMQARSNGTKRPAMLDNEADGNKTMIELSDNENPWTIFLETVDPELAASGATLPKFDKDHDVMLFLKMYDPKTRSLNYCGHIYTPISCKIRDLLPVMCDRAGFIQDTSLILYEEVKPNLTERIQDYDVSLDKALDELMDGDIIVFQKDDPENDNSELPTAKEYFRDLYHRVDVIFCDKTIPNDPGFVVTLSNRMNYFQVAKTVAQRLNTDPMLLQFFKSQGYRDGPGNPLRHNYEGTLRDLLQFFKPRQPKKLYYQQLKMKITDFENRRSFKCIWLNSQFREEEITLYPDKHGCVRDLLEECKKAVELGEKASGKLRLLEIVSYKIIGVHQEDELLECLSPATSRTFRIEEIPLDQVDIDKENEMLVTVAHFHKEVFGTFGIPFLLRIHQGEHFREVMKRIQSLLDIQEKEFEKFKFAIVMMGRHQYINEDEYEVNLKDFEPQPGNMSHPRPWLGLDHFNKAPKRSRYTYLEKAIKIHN
# Lookup of reported IC50 keyed by entry

Solved entries:
compound: Cc1cc(Cl)cc(-c2ccnc3cc(Cn4c(=O)ccn(CC(F)(F)F)c4=O)sc23)c1OC1CCNCC1
IC50: < 1000 nM
//
compound: Cc1cc(C(F)(F)F)cc(-c2ccnc3cc(Cn4c(=O)[nH]cc(C)c4=O)sc23)c1O[C@@H]1CNC[C@@H]1F
IC50: < 1000 nM
//
compound: Cc1cc(Cl)cc(-c2ccnc3cc(Cn4c(=O)ccn(CC(F)(F)F)c4=O)sc23)c1OC1(C)CCCNC1 (stereo not shown)
IC50: < 1000 nM
//
compound: Cc1cc(Cl)cc(-c2ccnc3cc(Cn4c(=O)ccn(CC(F)(F)F)c4=O)sc23)c1O[C@@H]1CNC[C@@H]1F
IC50: < 1000 nM

Prompt: # lookup: IC50 of "Cc1cc(Cl)cc(-c2ccnc3cc(Cn4c(=O)ccn(CC(F)(F)F)c4=O)sc23)c1OCCN1CCCCC1"
Completion: < 1000 nM

Prompt: # lookup: IC50 of "Cc1cc(Cl)cc(-c2ccnc3cc(Cn4c(=O)ccn(CC(F)(F)F)c4=O)sc23)c1O[C@@H]1C=C[C@@H](N)C1"
Completion: < 1000 nM

Prompt: # lookup: IC50 of "Cc1cc(Cl)cc(-c2ccnc3cc(Cn4c(=O)ccn(CC(F)(F)F)c4=O)sc23)c1O[C@H]1CCNC[C@@H]1F"
Completion: < 1000 nM

# credit: patent US10722514B2
